- assay summary: Tmax in ICR mouse at 25 mg/kg, ip by LC-tandem mass spectrometry analysis
- Type: ADME, organism-based
- applied conditions: in vivo
measured quantity: Tmax (min)
Your answer should be a plain number; it is taken to be in min.

// Tmax value for O=C(CCCCCCCCCCC(=O)N1CCN(C(=O)c2cc(Cc3n[nH]c(=O)c4ccccc34)ccc2F)CC1)NCCNc1cccc2c1C(=O)N(C1CCC(=O)NC1=O)C2=O (stereo unspecified) : 15

----------
- assay summary: Plasma concentration in ICR mouse at 25 mg/kg, ip at 24 hrs postinjection by LC-tandem mass spectrometry analysis
- Type: ADME, organism-based
measured quantity: concentration at 24 h

Summary for this compound, O=C(CCCCCCCCCCC(=O)N1CCN(C(=O)c2cc(Cc3n[nH]c(=O)c4ccccc34)ccc2F)CC1)NCCNc1cccc2c1C(=O)N(C1CCC(=O)NC1=O)C2=O (stereo unspecified) : concentration at 24 h is > 10 nM

All figures here come from ChEMBL document CHEMBL4699498.
